biological target: DNA-PK (Homo sapiens); assay: DNA-PK inhibition assay (ELISA, p53 serine 15 phosphorylation of GST-p53N66); format: biochemical, Mammalian (HeLa cell nuclear extract)
measurement label: pIC50
The meaning of pIC50 here: minus log10 of the concentration in molar units.

Exercise: // query pIC50 value for entry O=c1cc(N2CCOCC2)oc2c(-c3cccc(-c4ccccc4)c3)cccc12
Key: 6.12
